# EXPERIMENTAL_TARGET: hCB2 receptor (Homo sapiens)
# ASSAY_NAME: Inhibition of forskolin-stimulated cAMP accumulation, 3xHA-hCB2-CHO cells
# Assay type: cell-based
ENDPOINT_NAME: EC50 (nM)
All answers are understood in nM, so give the number only.

Value lookup for EC50; key = C[C@H](/C=C\C/C=C\C/C=C\CCCC(=O)N[C@H](C)CO)/C=C\CCCCC(F)(F)F [Compound 12]
22

----------
# EXPERIMENTAL_TARGET: hCB2 receptor (Homo sapiens, UniProt P34972)
# Sequence (P34972 whole entry): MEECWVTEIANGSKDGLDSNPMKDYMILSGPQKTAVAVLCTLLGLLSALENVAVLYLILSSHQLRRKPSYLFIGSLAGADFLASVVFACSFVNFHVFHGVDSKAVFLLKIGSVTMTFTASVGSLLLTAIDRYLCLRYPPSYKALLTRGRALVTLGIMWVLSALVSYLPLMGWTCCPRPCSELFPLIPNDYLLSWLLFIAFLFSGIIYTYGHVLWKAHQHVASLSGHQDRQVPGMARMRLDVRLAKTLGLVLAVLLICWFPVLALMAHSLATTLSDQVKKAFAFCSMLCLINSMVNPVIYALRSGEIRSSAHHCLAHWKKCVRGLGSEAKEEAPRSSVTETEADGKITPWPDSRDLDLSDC
# ASSAY_NAME: β-arrestin 2 recruitment assay
# Format: cell-based
ENDPOINT_NAME: pEC50
Scale: pEC50 equals -log10([C]), with [C] in mol/L.

Which pEC50 value belongs to C[C@H](/C=C\C/C=C\C/C=C\CCCC(=O)N[C@H](C)CO)/C=C\CCCCC(F)(F)F ?
8.25
